Recorded values, source the NIST ThermoML archive (doi:10.1021/je3002305).

- assayExplanation: refractive index (Na D-line) (dimensionless)
- testParameters: 293.1 K; 101.33 kPa; Liquid; Standard Abbe refractometry
parameter: refractive index
API doc: respond with a numeric literal and nothing else, no unit.

Some solved entries appear below for comparison.
Sample `CCCCCCCCCCCC` ; refractive index observed: 1.4221

Sample CCCCCCCC[n+]1ccn(C)c1.F[P-](F)(F)(F)(F)F [1-octyl-3-methylimidazolium hexafluorophosphate] ; refractive index observed: 1.4231

Sample CCCCCCn1cc[n+](C)c1.F[P-](F)(F)(F)(F)F [1-hexyl-3-methylimidazolium hexafluorophosphate] ; refractive index observed: 1.4176

Sample CCCCn1cc[n+](C)c1.F[P-](F)(F)(F)(F)F [1-butyl-3-methylimidazolium hexafluorophosphate] ; refractive index observed: 1.4101

Okay, now this compound:
Sample `CCCCc1ccccc1` ; refractive index observed: 1.4894
